Where do the numbers come from? From ChEMBL document CHEMBL4689842.

Tested on: HEK-293T
METHOD NOTES: Incucyte cell viability with HEK293T; further: filed as whole numbers so only -1 and 0 and 1 occur
Type: toxicity, cell-based
SETTINGS: human, 18 h, 10 µM, compound concentration 10 uM, replicate number 1, timepoint 18 hours
Give measured Growth Rate for each item. Keep answers brief.
Respond numerically, and do not add a unit to the figure.

The value of Growth Rate measured for the molecule `C[C@]12CC[C@@H]3c4ccc(O)cc4CC[C@H]3[C@@H]1CC[C@@H]2O` turned out to be 0

Record summary for `CCNC(=O)c1cc2c(N3CCOC[C@@H]3C)ccnc2n1C` : reported Growth Rate = 1

For `COc1cc2c(cc1NS(=O)(=O)c1ccc(Br)cc1C)n(C)c(=O)n2C` the molecule record lists Growth Rate as 0

Reported Growth Rate of `Cc1cc(-n2nc(Cc3cc(F)cc(C(F)(F)F)c3)nc2C)ccc1C(N)=O` : 0

For record `Cl.O=C(O)c1cc(-c2ccc(C3CCNCC3)cc2)c2ccc(-c3ccc(C(F)(F)F)cc3)cc2c1` the listed Growth Rate is 0

====

Task for the reader: assign each of the following compounds its reported Population Healthy Nuclei (%).
Tested on: U2OS
METHOD NOTES: Multiplex assay against U2OS
Type: toxicity, cell-based
SETTINGS: human, 48 h, 1 µM, compound concentration 1 uM, replicate 1
Quick note: give the figure in %, leave out the unit.

Entry under test: CCc1nn(CCCN2CCN(c3cccc(Cl)c3)CC2)c(=O)n1CCOc1ccccc1.Cl [NEFAZODONE HYDROCHLORIDE] . Its Population Healthy Nuclei (%) was 73

# Population Healthy Nuclei (%) (compound: `Cl.O=C(O)c1cc(-c2ccc(C3CCNCC3)cc2)c2ccc(-c3ccc(C(F)(F)F)cc3)cc2c1` ) is 81

Recorded result, Cc1ccc2c(c1)c1c(n2CCc2ccc(C)nc2)CCN(C)C1 [LATREPIRDINE] , Population Healthy Nuclei (%): 81

Sure, the documented Population Healthy Nuclei (%) for CC1=C(C(=O)Nc2cc3cn[nH]c3cc2F)C(c2ccc(C(F)(F)F)cc2)CC(=O)N1 (configuration not stated) is 85

// recorded Population Healthy Nuclei (%) for `CC(C)c1noc(N2CCC(COc3ccc(-c4ccc(S(C)(=O)=O)cc4)nc3)CC2)n1` : 79

Lookup result for Cc1cccc(CN2CCN(C(c3ccccc3)c3ccc(Cl)cc3)CC2)c1.Cl.Cl (configuration not stated) ; measured Population Healthy Nuclei (%): 85

// recorded Population Healthy Nuclei (%) for COc1cc2ncn(-c3cc(OCc4ccccc4C(F)(F)F)c(C(N)=O)s3)c2cc1OC [GW843682X] : 66

Looking up O=C(c1cc2c(cc1F)OC(c1ccc(F)cc1)(c1ccc(Cl)cc1Cl)O2)N1CCOCC1 (configuration not stated) , I see its Population Healthy Nuclei (%) listed as 75

Entry `CNC(=O)Nc1ccc(-c2nc(N3CC4CCC(C3)O4)c3cnn(C4CCC5(CC4)OCCO5)c3n2)cc1` — recorded Population Healthy Nuclei (%) = 49

Record `COc1ccc(-c2ccc3ncc4c(c3c2)n(-c2ccc(N3CCNCC3)c(C(F)(F)F)c2)c(=O)n4C)cn1.O=C(O)/C=C\C(=O)O` . Reported Population Healthy Nuclei (%): 3

Entry Cc1ccccc1C(c1ccccc1C)N1C2CCC1CC(O)(c1ccccc1)C2 (configuration not stated) , Population Healthy Nuclei (%) reported as 89

Short answer for `COC(=O)C1=C(C)NC(C)=C(C(=O)OCCCN2CCC(c3ccccc3)(c3ccccc3)CC2)[C@H]1c1cccc([N+](=O)[O-])c1` : Population Healthy Nuclei (%) was 39

Note to self: Population Healthy Nuclei (%) recorded for `CC(C)Oc1ccccc1C(=O)Nc1ccccc1C(=O)Nc1cccc(S(=O)(=O)C(F)(F)F)c1` was 74

Record `CCc1ccc(OCc2ccccc2C(=O)Nc2ccc3nc(C)cc(N)c3c2)cc1.Cl` , field Population Healthy Nuclei (%): 3

Summary for this compound, `CC(C)NC(=O)N1CC[C@H](NC2=Nc3cc(F)ccc3N(CC(F)F)c3ccc(Cl)cc32)C1` : Population Healthy Nuclei (%) is 77

The value of Population Healthy Nuclei (%) measured for the compound `CC(C)OC(=O)N1CCC(Oc2ncnc3c2cnn3-c2ccc(S(C)(=O)=O)cc2F)CC1` turned out to be 83

Entry `CN1CCN(Cc2ccc(Nc3ncc(Cl)c(Nc4ccccc4S(=O)(=O)N(C)C)n3)cc2)CC1` — recorded Population Healthy Nuclei (%) = 44

====

Hi there, I'd appreciate the recorded Population Mitochondria Different-Phenotype (%) for every entry that follows.
Test system: U2OS
METHOD NOTES: Multiplex assay against U2OS
Format: toxicity, cell-based
SETTINGS: human, 24 h, 10 µM, compound concentration 10 uM, replicate 1
Only the number, expressed in %, is required.

Notebook: `CCCSc1nc(N[C@@H]2C[C@H]2c2ccc(F)c(F)c2)c2nnn([C@@H]3C[C@H](OCCO)[C@@H](O)[C@H]3O)c2n1` , Population Mitochondria Different-Phenotype (%) read as 100

Per the records, this molecule ( `COc1ccc(-c2ccc3ncc4c(c3c2)n(-c2ccc(N3CCNCC3)c(C(F)(F)F)c2)c(=O)n4C)cn1.O=C(O)/C=C\C(=O)O` ) has Population Mitochondria Different-Phenotype (%) equal to 100

Just so you know, measured Population Mitochondria Different-Phenotype (%) for `CC(C)c1noc(N2CCC(COc3ccc(-c4ccc(S(C)(=O)=O)cc4)nc3)CC2)n1` came out at 14

Query `C=CC(=O)Nc1cccc(Oc2nc(Nc3ccc(N4CCN(C)CC4)cc3OC)ncc2Cl)c1` yields Population Mitochondria Different-Phenotype (%) of 9

Population Mitochondria Different-Phenotype (%) reading for `Cl.O=C(O)c1cc(-c2ccc(C3CCNCC3)cc2)c2ccc(-c3ccc(C(F)(F)F)cc3)cc2c1` : 12

What the record says about `COC(=O)C1=C(C)NC(C)=C(C(=O)OCCCN2CCC(c3ccccc3)(c3ccccc3)CC2)[C@H]1c1cccc([N+](=O)[O-])c1` : Population Mitochondria Different-Phenotype (%) is 100

The molecule identified as `Cc1nc(N2CC[C@H](O)C2)ncc1-c1cc(C(F)(F)F)cc2[nH]ncc12` registered its Population Mitochondria Different-Phenotype (%) at 12

For record `O=c1cc(N2CCOCC2)oc2c(-c3cccc4c3sc3ccccc34)cccc12` the listed Population Mitochondria Different-Phenotype (%) is 93

====

System: HEK-293T
METHOD NOTES: Multiplex assay against HEK293T
Assay type: toxicity, cell-based
SETTINGS: human, 48 h, 10 µM, compound concentration 10 uM, replicate 2
QUANTITY MEASURED: Population Fragmented Nuclei (%)
Give a bare numeral; the unit % is implied.

// sample `Cc1c[nH]c2nccc(Oc3c(F)cc(Nc4cc(Cl)nc(N)n4)cc3F)c12` , its Population Fragmented Nuclei (%) was 4

The compound identified as `CN1CCN(Cc2ccc(Nc3ncc(Cl)c(Nc4ccccc4S(=O)(=O)N(C)C)n3)cc2)CC1` registered its Population Fragmented Nuclei (%) at 17

Reported Population Fragmented Nuclei (%) ( `Cl.O=C(O)c1cc(-c2ccc(C3CCNCC3)cc2)c2ccc(-c3ccc(C(F)(F)F)cc3)cc2c1` ) = 13

Looking up `COc1ccc(-c2ccc3ncc4c(c3c2)n(-c2ccc(N3CCNCC3)c(C(F)(F)F)c2)c(=O)n4C)cn1.O=C(O)/C=C\C(=O)O` , I found its Population Fragmented Nuclei (%) recorded as 53

Sure, the documented Population Fragmented Nuclei (%) for Cc1cccc(CN2CCN(C(c3ccccc3)c3ccc(Cl)cc3)CC2)c1.Cl.Cl (configuration not stated) is 7

Summary for this compound, `CC(C)OC(=O)N1CCC(Oc2ncnc3c2cnn3-c2ccc(S(C)(=O)=O)cc2F)CC1` : Population Fragmented Nuclei (%) is 5

Looking up Cc1ccc2c(c1)c1c(n2CCc2ccc(C)nc2)CCN(C)C1 [LATREPIRDINE] , I found its Population Fragmented Nuclei (%) recorded as 2

====

System: Fibroblast
METHOD NOTES: Multiplex assay against human fibroblast
Type: toxicity, cell-based
SETTINGS: 12 h, 10 µM, compound concentration 10 uM, replicate 1
Provide the recorded Population Membrane Permeable-Phenotype (%) for the entries that follow.
Give the number; % is assumed, so skip it.

Item: `COc1ccc(-c2ccc3ncc4c(c3c2)n(-c2ccc(N3CCNCC3)c(C(F)(F)F)c2)c(=O)n4C)cn1.O=C(O)/C=C\C(=O)O` | Population Membrane Permeable-Phenotype (%): 50

So for `C=CC(=O)Nc1cccc(Sc2nc(Nc3ccc(N4CCN(C)CC4)cc3)ncc2Cl)c1` , the logged Population Membrane Permeable-Phenotype (%) turned out to be 6

The value of Population Membrane Permeable-Phenotype (%) measured for the compound CCc1nn(CCCN2CCN(c3cccc(Cl)c3)CC2)c(=O)n1CCOc1ccccc1.Cl [NEFAZODONE HYDROCHLORIDE] turned out to be 1

Population Membrane Permeable-Phenotype (%) reported for this compound `CNC(=O)Nc1ccc2c(c1)[C@@]1(CC2)OC(=O)N(CC(=O)N(Cc2ccc(F)cc2)[C@@H](C)C(F)(F)F)C1=O` : 7

Entry under test: `Cc1nc(N2CC[C@H](O)C2)ncc1-c1cc(C(F)(F)F)cc2[nH]ncc12` . Its Population Membrane Permeable-Phenotype (%) was 3

# Population Membrane Permeable-Phenotype (%) (compound: `CCCSc1nc(N[C@@H]2C[C@H]2c2ccc(F)c(F)c2)c2nnn([C@@H]3C[C@H](OCCO)[C@@H](O)[C@H]3O)c2n1` ) is 12

# Population Membrane Permeable-Phenotype (%) of `COC(=O)C1=C(C)NC(C)=C(C(=O)OCCCN2CCC(c3ccccc3)(c3ccccc3)CC2)[C@H]1c1cccc([N+](=O)[O-])c1` = 63

Sample COc1cc2ncn(-c3cc(OCc4ccccc4C(F)(F)F)c(C(N)=O)s3)c2cc1OC [GW843682X] ; Population Membrane Permeable-Phenotype (%) observed: 19

Briefly, Population Membrane Permeable-Phenotype (%) measured for `CC(C)c1noc(N2CCC(COc3ccc(-c4ccc(S(C)(=O)=O)cc4)nc3)CC2)n1` : 24

Looking up `C=CC(=O)Nc1ccc2[nH]c(=O)n(C3CCN(Cc4ccc(-c5nc6cc[nH]c(=O)c6cc5-c5ccccc5)cc4)CC3)c2c1` , I found its Population Membrane Permeable-Phenotype (%) recorded as 6

`CNC(=O)Nc1ccc(-c2nc(N3CC4CCC(C3)O4)c3cnn(C4CCC5(CC4)OCCO5)c3n2)cc1` has a reported Population Membrane Permeable-Phenotype (%) of 30

Given item `O=c1cc(N2CCOCC2)oc2c(-c3cccc4c3sc3ccccc34)cccc12` , the value recorded as its Population Membrane Permeable-Phenotype (%) is 30
